assayed target: CGRP receptor (calcitonin receptor-like receptor in complex with receptor activity-modifying protein 1) (human (endogenous in SK-N-MC), UniProt Q16602 23-461; O60894 27-148)
Sequence (Q16602 23-461, chain 1 of 2): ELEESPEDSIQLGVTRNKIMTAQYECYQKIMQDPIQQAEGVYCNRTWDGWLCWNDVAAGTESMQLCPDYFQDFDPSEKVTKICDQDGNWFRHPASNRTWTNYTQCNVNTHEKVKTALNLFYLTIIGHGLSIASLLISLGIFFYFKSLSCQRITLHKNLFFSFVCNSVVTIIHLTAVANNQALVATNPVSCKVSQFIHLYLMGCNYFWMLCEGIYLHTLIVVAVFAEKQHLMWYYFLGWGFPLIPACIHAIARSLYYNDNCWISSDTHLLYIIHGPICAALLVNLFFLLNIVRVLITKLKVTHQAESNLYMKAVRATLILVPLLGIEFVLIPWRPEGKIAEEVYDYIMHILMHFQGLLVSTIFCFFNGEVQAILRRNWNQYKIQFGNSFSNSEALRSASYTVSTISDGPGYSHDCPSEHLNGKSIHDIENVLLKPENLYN
Sequence (O60894 27-148, chain 2 of 2): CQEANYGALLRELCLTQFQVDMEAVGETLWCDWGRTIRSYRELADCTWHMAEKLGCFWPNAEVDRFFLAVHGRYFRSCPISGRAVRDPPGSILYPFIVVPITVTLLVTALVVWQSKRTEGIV
protocol summary: cell-based or functional assay
Bridge positions count the residues as written; N and C are the ends. Ends that are not written are not given here.
parameter measured: Emax (% CGRP), cAMP production in SK-N-MC cells
One number for each entry, in % CGRP.

// worked examples, Emax (% CGRP), cAMP production in SK-N-MC cells included
{"binder": "CCDTATCVTHRLAGLLSRSGGVVKNNFVPTNVGSKAF-NH2 (disulfide 2-7; also: Cys1 Acm protected, removal not given here) [[Cys^1]-CGRP]", "endpoint unit": "% CGRP", "experimental result": 71}
{"binder": "ACDTAACVTHRLAGLLSRSGGVVKNNFVPTNVGSKAF-NH2 (disulfide 2-7) [[Ala^6]-CGRP]", "endpoint unit": "% CGRP", "experimental result": 72}
{"binder": "ACDAATCVTHRLAGLLSRSGGVVKNNFVPTNVGSKAF-NH2 (disulfide 2-7) [[Ala^4]-CGRP]", "endpoint unit": "% CGRP", "experimental result": 100}

Turning to the following binder.
QUERY: Using the record for ACDTASCVTHRLAGLLSRSGGVVKNNFVPTNVGSKAF-NH2 (disulfide 2-7) [[Ser^6]-CGRP] , state its measured Emax (% CGRP), cAMP production in SK-N-MC cells.
RESULT: 100
